- Test system: Malme-3M
- Assay Summary: NCI tumour cell line growth inhibition, 48 h
The source made the active and inactive calls. No stated cut-off is given here; in the data, active = GI50 up to about 1.1 µM and inactive = higher.
Possible outcomes: active, inactive

O=C(Nc1ccc(N2C(=O)CSC2c2cccs2)cc1)c1ccc(N2C(=O)CSC2c2cccs2)cc1 (stereo not given)
inactive
COc1ccc(CCc2cc(OC)cc(OC)c2)cc1
inactive
COc1ccc(NC(=O)C2=C(SC)C(C#N)C(=O)N=C2N)cc1 (stereo not given)
inactive
COc1cc(C2=NNC(=O)c3ccccc3N2c2nc(-c3cccs3)nc3ccc(Br)cc23)cc(OC)c1OC
inactive
C[C@]12CCC(=O)C=C1CC[C@@H]1[C@@H]2[C@@H](O)C[C@@]2(C)[C@H]1CC[C@]2(O)C(=O)CO [HYDROCORTISONE]
inactive
COc1cc(-c2cc(=O)c3c(OC)c(OC)c(OC)c(OC)c3o2)cc(OC)c1OC
inactive
COc1ccc2c(c1)nc1n2C(c2c(F)cccc2Cl)SC1 (stereo not given)
active
C#CCOCn1cnc2c(S)ncnc21
inactive
CCCCCCCCCCCCCCCC(=O)ON1C(=S)NC(C)(c2ccccc2)C1=S (stereo not given)
inactive
NC(CCC(=O)c1ccccn1)C(=O)O (stereo not given)
inactive

* * *

- Test system: OVCAR-5
- Assay Summary: NCI tumour cell line growth inhibition, 48 h
Calls of active or inactive are those of the source. Rule as the data show it: active = GI50 up to about 1.1 µM and inactive = higher.
This listing pairs compounds with measured GI50.
Measurement Type: GI50

O=C(NNC(=S)NCc1ccccc1)C12CC3CC(CC(C3)C1)C2
> 100 µM (inactive)
CCCCCN(CCCCC)C(=O)[C@H](CCC(=O)O)NC(=O)c1cc2ccccc2[nH]1
> 100 µM (inactive)
O=C(OC[C@H]1O[C@@H](OC(=O)c2cc(O)c(O)c(O)c2)[C@H](OC(=O)c2cc(O)c(O)c(O)c2)[C@@H](OC(=O)c2cc(O)c(O)c(O)c2)[C@@H]1OC(=O)c1cc(O)c(O)c(O)c1)c1cc(O)c(O)c(O)c1 [PENTAGALLOYL GLUCOSE]
7.94 µM (inactive)
CCCCCCCCCCCCCCCC(=O)OCC(COP(=O)(O)OCCNC(=O)CCSSc1ccccn1)OC(=O)CCCCCCCCCCCCCCC (stereo not drawn)
> 100 µM (inactive)
CN1C(=O)C(/C=N/NC(=O)c2cccnc2)C(N)N(C)C1=O (stereo not drawn)
> 100 µM (inactive)
CCCC/C=C1\CCC(C)(CN(C)C)C1=O (stereo not drawn)
> 100 µM (inactive)
CN1C(NCCO)=NS(=O)(=O)c2ccccc21
> 100 µM (inactive)
O=C1CN(c2ccccc2)C(=O)C1C(=O)Nc1ccc(Cl)c(Cl)c1 (stereo not drawn)
30.4 µM (inactive)

* * *

This listing pairs compounds with measured GI50.
- Tested on: SF-268
- Assay Summary: NCI tumour cell line growth inhibition, 48 h
The source made the active and inactive calls. No stated cut-off is given here; in the data, active = GI50 up to about 1.1 µM and inactive = higher.
Measurement Type: GI50

CCOc1ccc(NC(=O)CCc2nnc(SC)o2)cc1
> 100 µM (inactive)
Nc1ccc(/C=C/c2ccnc3ccccc23)cc1
16.5 µM (inactive)
Cc1ccc(C)c(N2C(=O)C(=O)C(c3nc4ccccc4s3)/C(=N/NC(=O)NN)C2=O)c1 (configuration not stated)
> 100 µM (inactive)
CC1=NN(C(=O)CC(=O)NC(=O)CC(=O)Nc2ccccc2F)C(=O)C1/N=N/c1ccc([N+](=O)[O-])cc1 (configuration not stated)
82.2 µM (inactive)
CCOC(=O)c1c(C)n(CCN2CCN(C)CC2)c2ccc(OC)cc12
53.7 µM (inactive)
O=S(=O)(O)c1ccc2c(/N=N/c3c(O)ccc4ccccc34)cccc2c1
> 100 µM (inactive)
COc1ccc2c(C)cc(N/N=C/c3sccc3C)nc2c1
17.4 µM (inactive)
N#CC(C#N)=CNC(N)=S
> 100 µM (inactive)
O=C1OC(c2ccc(Cl)cc2)(c2ccc(Cl)cc2)c2c1ccc1ccccc21
> 100 µM (inactive)
CCOC(=O)C(=Cc1ccccc1Cl)C(=O)OCC
2.19 µM (inactive)
CC[S+]([O-])c1c2cc(OC)ccc2nc2ccc(OC)cc12 (configuration not stated)
14.5 µM (inactive)
CC(=O)Nc1ccc2cc3c(nc2n1)c1cccnc1n3S(=O)(=O)c1ccccc1
> 100 µM (inactive)
CN(C)C/C=C(/c1ccc(Br)cc1)c1cccnc1
65.8 µM (inactive)
CCOC(=O)C1CCC(=O)N1C(=O)c1ccccc1 (configuration not stated)
> 100 µM (inactive)
COc1ccc(NC(=O)C2=C(SC)C(C#N)C(=O)N=C2N)cc1 (configuration not stated)
> 100 µM (inactive)
CCCCCCCCCCCCCCCCOC(=O)c1cc(O)cc(C(=O)OCCCCCCCCCCCCCCCC)c1
> 100 µM (inactive)
CC(=O)Nc1ccc(-c2nc3ccccc3s2)cc1Cl
56.8 µM (inactive)
O=C(O)\C=C/C=C/C=C/C=C/C(=O)O
> 100 µM (inactive)
CCn1nc(-c2ccccc2)c2c1N(C)c1ccccc1-n1c(-c3ccccc3)nnc1-2
16.1 µM (inactive)
C/C(=N/NC(=O)C(N)=O)C(CC(C(=O)Nc1ccccc1C)/C(C)=N\NC(=O)C(N)=O)C(=O)Nc1ccccc1C (configuration not stated)
> 100 µM (inactive)
CC(C)(C)C(=O)C(C#N)C(=O)C(C)(C)C
> 100 µM (inactive)
Cc1cc(C)c(C(=O)/C(=C/c2ccccc2)c2ccccc2)c(C)c1
76.2 µM (inactive)
Cc1ccc(/N=N/C(=N/NC(=O)c2ccccc2)c2ccc(N(CCC#N)CCC#N)cc2C)cc1
41.9 µM (inactive)
CCOC1=C2C(C)(CCC3[C@@]4(C)C=CC(=O)C(C)(C)C4CC(O)[C@@]23C)C(c2ccoc2)C1=O (some centres not stated)
24.2 µM (inactive)
C=CCNC1=C2C[C@@H](C)C[C@H](OC)[C@H](O)[C@@H](C)/C=C(\C)[C@H](OC(N)=O)[C@@H](OC)/C=C\C=C(/C)C(=O)NC(=CC1=O)C2=O [TANESPIMYCIN]
0.593 µM (active)
O=C(CC(C(=O)c1ccsc1)c1cccs1)c1ccsc1 (configuration not stated)
85.9 µM (inactive)
CCOC(=O)/C(C#N)=C/c1ccnc2ccccc12
> 100 µM (inactive)
COc1cc2c(cc1OC)C(Cl)C(c1cc(OC)c(OC)c(OC)c1)=C2Cl (configuration not stated)
16.6 µM (inactive)
N#Cc1sc2c(c1OC(=O)c1ccc(Cl)cc1Cl)c(=O)n(-c1ccccc1)c(=S)n2-c1ccccc1
29.4 µM (inactive)
O=C1c2ccccc2C(O)(O)C1(O)C1(O)C(=O)c2ccccc2C1(O)O (configuration not stated)
> 100 µM (inactive)
O=C(CSc1nc2ccc(Cl)cc2c(=O)n1-c1ccccc1)N/N=C1\C(=O)Nc2ccc(F)cc21
2.82 µM (inactive)
COc1ccc(CCNC(=O)CCCCCO)cc1OC
> 100 µM (inactive)
Cc1cc(C)n(-c2nc3ccccc3c(=O)[nH]2)n1
4.1 µM (inactive)
O=c1[nH]c(Nc2cccc(C(F)(F)F)c2)nc2[nH]cnc12
> 100 µM (inactive)
Cc1c(/N=C\c2ccc(N(CCC#N)CCC#N)cc2)c(=O)n(-c2ccccc2)n1C
64.6 µM (inactive)
O=C(Nn1c(-c2cccs2)nc2ccc(I)cc2c1=O)c1ccccc1
34.4 µM (inactive)
CC1=NN(C(=O)CC(=O)N(C(=O)c2ccccc2Cl)c2ccc(C)cc2)C(=O)C1/N=N/c1ccc([N+](=O)[O-])cc1 (configuration not stated)
44.6 µM (inactive)
COc1ccc(C(=O)C2=NON3OC23C(=O)c2ccc(OC)cc2)cc1 (configuration not stated)
18.8 µM (inactive)
COc1ccccc1CC(=O)C(O)(C(F)(F)F)C(F)(F)F
> 100 µM (inactive)
N#CC(=N)c1ncn(-c2ccccc2N)c1N
> 100 µM (inactive)
COc1ccc2c(c1)nc1n2C(c2c(F)cccc2Cl)SC1 (configuration not stated)
3.66 µM (inactive)
O=c1c2ccccc2nc2n1NC(c1c(Cl)cccc1Cl)N2c1cccc(Cl)c1 (configuration not stated)
11.9 µM (inactive)

* * *

This listing pairs compounds with measured GI50.
- System: NCI/ADR-RES
- Assay Summary: NCI tumour cell line growth inhibition, 48 h
Activity calls are given as the source filed them. No stated cut-off is given here; in the data, active = GI50 up to about 1.1 µM and inactive = higher.
Measurement Type: GI50

CN(C)Cc1cc(/N=N/c2ccc(Cl)c(Cl)c2)ccc1O
7.46 µM (inactive)
CCOC(=O)c1csc(NC(=O)CCCC#N)n1
> 100 µM (inactive)
CO[C@@H](c1ccccc1)[C@H](O)[C@@](O)(c1ccccc1)P(=O)(OC)OC
> 100 µM (inactive)
CCOC(=O)C(=Cc1ccccc1Cl)C(=O)OCC
2 µM (inactive)
COc1ccc(/C(C)=C2\CCCN(Cc3ccccc3)C2)cc1
22.6 µM (inactive)
COc1cc2c(c(OC)c1OC)C(=O)[C@H](O)[C@H]2NC(N)=O
> 100 µM (inactive)
O=C(/C=C\c1ccsc1)c1ccccc1
12.3 µM (inactive)
COc1ccc2c(C)cc(N/N=C/c3sccc3C)nc2c1
10 µM (inactive)
O=C1CC(c2ccccc2)[S+]([O-])c2ccccc2N1 (stereo unspecified)
> 100 µM (inactive)
N#Cc1c(N)nc2[nH]nc(N)c2c1-c1ccccc1
15 µM (inactive)
COC(=O)[C@]1(C)CCC[C@]2(C)[C@H]3CC[C@]4(C(C)C)OO[C@@H](O4)[C@]34O[C@@H]4C[C@H]21
3.57 µM (inactive)
